Below, each of the molecules is paired with its reported MIC value.
- Test system: Staphylococcus aureus
- protocol: Antibacterial activity against methicillin-resistant Staphylococcus aureus measured after 24 hrs by susceptibility assay
- Format: functional
Supply the numeric figure in µM, leaving out any unit text.

Problem: # query: MIC of entry CCn1cc(C(=O)O)c(=O)c2cc(F)c(N3CCNCC3)cc21
Result: 4

Here is another molecule to look at.
Problem: # query: MIC of entry CC(=O)c1cccc2c3c([nH]c12)C(C)(C)[C@@H]1CC[C@]2(C)[C@H](CC=C4[C@@H]5CC(C)(C)CC[C@]5(C(=O)NS(=O)(=O)c5ccccc5)CC[C@]42C)[C@@]1(C)C3
Result: 1
